Target: T1, CMV peptide on HLA-E*01:03 (human)
T1 peptide: VMAPRTLIL
Assay: data from [97]; method not given; soluble, other
TEST_READOUT: Kd

(Q) Could you share which Kd value was measured for KK50.4 (TCR) alpha TRAV26-1*01 CDR3: IVVRSSNTGKLI beta TRBV14*01 CDR3: ASSQDRDTQY ?
(A) 30.2 µM
